# METHOD NOTES: Pharmacokinetics in hGLP-1R mice after oral dosing
# Assay type: in vivo, male C57BL/6J hGLP-1R mouse
# TEST PARAMETERS: male, C57BL/6J hGLP-1R, mouse, plasma, po, 1 mg/kg, hGLP-1R mouse plasma, PO 1 mg/kg, mean; read-out: Cmax
Attribute: Cmax
REPORTED METRIC: Cmax (ng/mL)

| COMPOUND | REPORTED METRIC | RECORDED VALUE |
| --- | --- | --- |
| N#Cc1ccc(COc2cccc(C3CCN(Cc4nc5ccc(C(=O)O)cc5n4Cc4cncs4)CC3)n2)c(F)c1 | Cmax | 283 |
| N#Cc1ccc(COc2cccc(C3CCN(Cc4nc5ccc(C(=O)O)cc5n4C[C@@H]4CCO4)CC3)n2)c(F)c1 [Reference Compound A, reference compound] | Cmax | 49.7 |
